Below: a set of entries, each annotated with reported inhibition at 1 µM.
tested-system: H1 histaminergic receptors (Homo sapiens)
Construct: expressed in transfected cells; host or cells: HEK-293 cells
Sequence (P35367 whole entry): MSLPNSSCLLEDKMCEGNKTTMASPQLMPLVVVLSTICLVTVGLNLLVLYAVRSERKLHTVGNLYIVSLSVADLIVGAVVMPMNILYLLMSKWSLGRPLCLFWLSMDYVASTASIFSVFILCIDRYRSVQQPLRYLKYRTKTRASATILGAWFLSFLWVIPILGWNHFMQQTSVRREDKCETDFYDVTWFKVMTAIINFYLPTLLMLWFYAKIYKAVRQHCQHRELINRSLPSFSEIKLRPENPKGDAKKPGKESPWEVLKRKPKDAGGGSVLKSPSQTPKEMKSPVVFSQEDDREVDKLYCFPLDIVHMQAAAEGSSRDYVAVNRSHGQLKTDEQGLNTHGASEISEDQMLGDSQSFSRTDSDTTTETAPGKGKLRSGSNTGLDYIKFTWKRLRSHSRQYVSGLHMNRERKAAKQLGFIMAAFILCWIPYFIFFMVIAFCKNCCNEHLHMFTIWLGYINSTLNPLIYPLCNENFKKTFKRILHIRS
method-summary: Radioligand binding assay, histaminergic H1 receptors
condition-set: human recombinant (HEK-293 cells), [3H]pyrilamine 1 nM
Provide a numeric answer, followed by its unit.

Reference set (2 entries):
* CC1(C)Cc2cccc(OCCN3CCC(NS(=O)(=O)c4cccc(O)c4)C3)c2O1 (stereo not shown) [Compound 107] | 30%
* Cc1cccc(S(=O)(=O)NC2CCN(CCCc3c[nH]c4ccc(F)cc34)C2)c1 (stereo not shown) [Compound 78] | 65%

Enquiry: Fill in the recorded inhibition at 1 µM for this compound, with H1 histaminergic receptors (Homo sapiens) as test system: COc1cccc(S(=O)(=O)NCC2CN(CCCc3noc4cc(F)ccc34)C2)c1 [Compound 143]
Return: 36%

Enquiry: Fill in the recorded inhibition at 1 µM for this compound, with H1 histaminergic receptors (Homo sapiens) as test system: Cc1c(S(=O)(=O)NC2CCN(CCCc3noc4cc(F)ccc34)C2)sc2ccc(Cl)cc12 (stereo not shown) [Compound 29]
Return: 59%
